Measured cytotoxicity at 70.5 h accompanies every entry in the list below.
assay: Human HepG2 cell viability assay in 384 well format; type: toxicity, cell-based; set-up: dose 125 nL, time 70.5 hour; concentration not given beside the values; conditions: HepG2 cells, read-out: Inhibition
reported endpoint: cytotoxicity at 70.5 h (%)

1) COCCN1CCC(Nc2c(F)cc(C#N)cc2F)CC1: -14.5
2) Cc1nc[nH]c1-c1nccn1CCN1CCOC1=O: -8.03
3) COCCC(=O)N1Cc2nc3c(C)c(-c4cccs4)nn3c(O)c2C1: -14.7
4) COCCN1CCN(CCCS(=O)(=O)c2ccccc2)CC1C (centres undefined): 0.059
5) COCCN(C)C(=O)c1nc2c(s1)CCCN2C(=O)C1CC1: -3.1
6) Cc1ccc(NC(=O)N(C)C)c(C(=O)OCC(=O)NC2CCCC2)c1: -0.892
7) Cc1ccc(C(=O)NC(C)Cn2cccn2)c(=O)[nH]1 (centres undefined): 8.15
8) CN1C(Cn2cccn2)C[C@@H]2CN(Cc3nccs3)CC[C@@H]21 (some centres undefined): -5.16
9) CN(Cc1nc(Cc2cccc(C(F)(F)F)c2)no1)C(C1CC1)C1CC1: -9.87
10) c1cnc2[nH]c(C3CCCC3)c(CN3CCCCC3)c2c1: -7.43
11) Cc1cnn(CC2CCCCN2C(=O)c2ccc(N(C)C)nc2)c1 (centres undefined): 0.883
12) Cc1cc(C)c(CNC(=O)NCc2ccncc2)c(=O)[nH]1: -0.477
13) CSC1(CNc2ncc(Br)cn2)CCOCC1: -0.0448
14) CCCc1ncc(C(=O)N2CCOC(c3nc(C)n[nH]3)C2)s1 (centres undefined): -7.33
15) CCOC(=O)CNC(=O)c1scnc1C: -8.4
16) C[C@@H]1CN(C(=O)CCc2nncn2C)CC[C@@]1(O)C1CCC1: -5.47
17) CC(C)c1nnc2sc(CC3CN(Cc4ccccc4)CCO3)nn12 (centres undefined): 6.69
18) O=C(NCc1nncn1C1CC1)c1cccnc1Oc1ccccc1: -0.0708
19) Cc1cc(NC(=O)c2ccc(C)c(F)c2)[nH]n1: -1.85
20) COc1cccc(CNC(CN2CCN(C)CC2)c2ccccc2)c1 (centres undefined): 5.01
21) Cc1ccc(N2CC[C@H]3C[C@@H](C(=O)N4CCOCC4)O[C@H]3C2)nn1: -0.412
22) CC(C)C(NC(=O)c1ccc(N2CCOCC2)nc1)c1cccs1 (centres undefined): -9.4
23) CCN1CCN(C2CCN(CC(=O)NCC(F)(F)F)CC2)C1=O: -6.43
24) CC(Nc1ccc(CCN2CCCCC2)cc1)C(=O)N(C)CCC#N (centres undefined): -6.46
